tested on: HCT-116; experiment: Growth inhibition of human HCT116 cells at 10 uM after 48 hrs by SRB assay relative to control; format: functional; conditions: HCT-116, 48 h, read-out: GI
Property: inhibition of growth at 10 µM; scope: individual compounds
All answers are understood in %, so give the number only.

1) COc1cccc(NC(=O)c2cccc(-c3cc(=O)c4c(O)c(OC)c(OC)cc4o3)c2)c1	30.7
2) COc1ccccc1C(=O)Nc1cccc(-c2cc(=O)c3c(O)c(OC)c(OC)cc3o2)c1	11.7
3) COc1cc2oc(-c3cccc(NC(=O)c4ccc5c(c4)OCO5)c3)cc(=O)c2c(O)c1OC	21
4) COc1cc2oc(-c3cccc(C(=O)Nc4ccc5c(c4)OCO5)c3)cc(=O)c2c(O)c1OC	43
5) Cc1ccc(NC(=O)c2ccc(CN3CCN(C)CC3)cc2)cc1Nc1nccc(-c2cccnc2)n1	18.6

Please report inhibition of growth at 10 µM for the following compound: COc1cccc(C(=O)Nc2cccc(-c3cc(=O)c4c(OC)c(OC)c(OC)cc4o3)c2)c1 46.4

Please report inhibition of growth at 10 µM for the following compound: COc1ccccc1C(=O)Nc1cccc(-c2cc(=O)c3c(OC)c(OC)c(OC)cc3o2)c1 63.3

Please report inhibition of growth at 10 µM for the following compound: COc1ccc(C(=O)Nc2cccc(-c3cc(=O)c4c(OC)c(OC)c(OC)cc4o3)c2)cc1 52.2

Please report inhibition of growth at 10 µM for the following compound: COc1ccc(NC(=O)c2cccc(-c3cc(=O)c4c(OC)c(OC)c(OC)cc4o3)c2)cc1 36.6
